Hello, the source for this data is ChEMBL document CHEMBL1135784, in case you need it.

System: Streptococcus pneumoniae
protocolSummary: Evaluated for its antibacterial activity against Streptococcus pneumoniae G9a
Format: functional
measuredQuantity: MIC (µg/mL)
One number for each entry, in µg/mL.

C/C(N)=N/CCC[C@H](N)CC(=O)N(C)C1CN=C(NC(N)=O)NC1=O (stereo not given in full) : 16
CN(CCC[C@H](N)CC(=O)N(C)C1CN=C(NC(N)=O)NC1=O)C(=N)N (stereo not given in full) : 4
C/N=C(/N)N(C)CCC[C@H](N)CC(=O)N(C)C1CN=C(NC(N)=O)NC1=O.Cl.Cl (stereo not given in full) : 32
CN(C(=O)C[C@@H](N)CCCN=C(N)N)C1CN=C(NC(N)=O)NC1=O (stereo not given in full) : 16

Ask: Lab note: need MIC with Streptococcus pneumoniae for entry C/N=C(/N)NCCC[C@H](N)CC(=O)N(C)C1CN=C(NC(N)=O)NC1=O (stereo not given in full) , please look it up.
Result: 16
